Values were extracted from PubChem BioAssay (NCATS).

- testedTarget: Cytochrome P450 2D6 (Homo sapiens) (UniProt P10635)
- Sequence (P10635 whole entry, looked up): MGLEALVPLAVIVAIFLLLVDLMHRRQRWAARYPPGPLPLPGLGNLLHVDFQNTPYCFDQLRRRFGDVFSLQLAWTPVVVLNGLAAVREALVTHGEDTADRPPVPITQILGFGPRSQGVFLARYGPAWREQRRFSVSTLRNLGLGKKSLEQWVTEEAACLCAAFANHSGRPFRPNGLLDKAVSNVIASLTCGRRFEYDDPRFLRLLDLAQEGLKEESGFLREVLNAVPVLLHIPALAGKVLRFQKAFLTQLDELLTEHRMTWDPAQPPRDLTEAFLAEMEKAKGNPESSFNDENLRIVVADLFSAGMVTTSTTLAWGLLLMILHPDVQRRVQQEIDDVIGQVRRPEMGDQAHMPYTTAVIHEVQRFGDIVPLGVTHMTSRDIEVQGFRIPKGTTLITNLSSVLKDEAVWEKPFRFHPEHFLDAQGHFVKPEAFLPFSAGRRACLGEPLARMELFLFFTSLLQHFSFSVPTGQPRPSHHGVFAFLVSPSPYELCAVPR
- protocol: qHTS Assay for Inhibitors and Substrates of Cytochrome P450 2D6 (AID 891); note: nearly all actives have a fitted effect of over 60% in size
- measurementSetup: recombinant CYP2D6, luciferin-ME EGE luminescence; series mostly up to 57.1 µM
Inconclusive results are not listed. Calls of active or inactive are those of the source. Calls come from the whole dose curve; as a rule, active = well fitted inhibition curve with a large enough effect; inconclusive = small, poorly fitted or top-dose-only effect; inactive = no such curve, though single readings can be large or run the other way.
Tick one outcome: active, inactive

CC(C)C[C@@H](CC(=O)N[C@@H](CCC(=O)O)CC(=O)O)NC(=O)[C@@H]1CCCC[C@H]1NC(=O)C[C@@H](NC(=O)C[C@H](Cc1c[nH]c2ccccc12)NC(=O)[C@@H]1CNCC[C@H]1N)C(C)C
inactive
NCCC[C@@H](CC(=O)N[C@@H]1CCNC[C@H]1C(=O)N[C@H](CC(=O)N[C@@H](CCC(=O)O)CC(=O)O)Cc1ccccc1)NC(=O)C[C@H](Cc1ccccc1)NC(=O)[C@@H]1CCCC[C@H]1N
inactive

Short answer needed: outcome of this test for O=c1c(O)c(-c2ccc(O)c(O)c2)oc2c(OC[C@H]3O[C@@H](O)[C@@H](O)[C@H](O)[C@@H]3O)c(O)cc(O)c12 ? inactive

For COc1ccc([C@@H]2OC[C@]3(COC(C)=O)[C@H](C)C=C(C)[C@@H]2[C@H]3C)cc1 , what call appears in the results of this test? inactive

What call does the record list for CC[C@]1(O)C[C@H]2CN(CCc3c([nH]c4ccccc34)[C@](C(=O)OC)(c3cc4c(cc3OC)N(C=O)[C@H]3[C@@](O)(C(=O)OC)[C@H](OC(C)=O)[C@@]5(CC)C=CCN6CC[C@]43[C@H]65)C2)C1 ? inactive

Hi team, can someone confirm the assay call for COc1ccc(-c2coc3ccc(O[C@@H]4O[C@@H](COC(C)=O)[C@@H](OC(C)=O)[C@@H](OC(C)=O)[C@H]4OC(C)=O)c(OC(C)=O)c3c2=O)cc1 ? inactive

How did this test come out for CC(C)C[C@@H](CC(=O)N[C@@H](CCC(=O)O)CC(=O)O)NC(=O)[C@@H]1CCCC[C@H]1NC(=O)C[C@H](CCCN)NC(=O)C[C@H](Cc1ccccc1)NC(=O)[C@@H]1CNCC[C@H]1N ? inactive

What did the test return for COc1cc(/C=C\C(=O)CC(=O)/C=C\c2ccc(O)c(OC)c2)ccc1O ? active

In this assay, the call recorded for CC(C)C[C@@H](CC(=O)N[C@@H](CCC(=O)O)CC(=O)O)NC(=O)[C@@H]1CCCC[C@H]1NC(=O)C[C@@H](NC(=O)C[C@H](CO)NC(=O)[C@@H]1CCCC[C@H]1N)C(C)C was what? inactive

Test call, this compound: NCCC[C@@H](CC(=O)N[C@@H]1CCCC[C@H]1C(=O)N[C@H](CC(=O)N[C@@H](CCC(=O)O)CC(=O)O)Cc1c[nH]c2ccccc12)NC(=O)C[C@H](Cc1ccccc1)NC(=O)[C@@H]1CCCC[C@H]1N inactive

Check the results log: what was the call for CC(C)[C@@H](CC(=O)N[C@@H]1CCCC[C@H]1C(=O)N[C@H](CC(=O)N[C@@H](CCC(=O)O)CC(=O)O)Cc1c[nH]c2ccccc12)NC(=O)C[C@H](Cc1ccccc1)NC(=O)[C@@H]1CCCC[C@H]1N ? inactive

* * *

- protocol: qHTS profiling for inhibitors of Plasmodium falciparum proliferation (AID 504749); note: nearly all actives have a fitted effect of over 60% in size
- measurementSetup: P. falciparum in erythrocytes, SYBR Green DNA, 72 h; at 28.7 µM (top of the series); parasite line A
Results filed as inconclusive are left out.
// label = Y if activity, negative = inhibition is not less than 3%, otherwise N

Cc1onc(-c2c(F)cccc2Cl)c1C(=O)NC1C(=O)N2C1SC(C)(C)C2C(=O)O (stereo unspecified)
Y

Can CC(O)C(N)C(=O)O (stereo unspecified) be said to have activity, negative = inhibition at or above 3%? Y

# check: activity, negative = inhibition of Nc1ncn(C2C[C@H](O)[C@@H](CO)O2)c(=O)n1 (stereo partly specified) is greater than or equal to 3% N

Decide: activity, negative = inhibition of Nc1nc(F)nc2c1ncn2[C@@H]1O[C@H](CO)[C@@H](O)[C@H]1O >= 3%? Y

Please check the record O=C(O)c1ccc(N[C@@H]2OC[C@@H](O)[C@@H](O)[C@@H]2O)cc1 and state if its activity, negative = inhibition is at or above 3%. Y

Please check the record CCN(CC)CC(=O)Nc1c(C)cc(C)cc1C and state if its activity, negative = inhibition is at or above 3%. N

* * *

- testedTarget: Glucocorticoid receptor (Homo sapiens) (UniProt P04150)
- Sequence (P04150 whole entry, looked up): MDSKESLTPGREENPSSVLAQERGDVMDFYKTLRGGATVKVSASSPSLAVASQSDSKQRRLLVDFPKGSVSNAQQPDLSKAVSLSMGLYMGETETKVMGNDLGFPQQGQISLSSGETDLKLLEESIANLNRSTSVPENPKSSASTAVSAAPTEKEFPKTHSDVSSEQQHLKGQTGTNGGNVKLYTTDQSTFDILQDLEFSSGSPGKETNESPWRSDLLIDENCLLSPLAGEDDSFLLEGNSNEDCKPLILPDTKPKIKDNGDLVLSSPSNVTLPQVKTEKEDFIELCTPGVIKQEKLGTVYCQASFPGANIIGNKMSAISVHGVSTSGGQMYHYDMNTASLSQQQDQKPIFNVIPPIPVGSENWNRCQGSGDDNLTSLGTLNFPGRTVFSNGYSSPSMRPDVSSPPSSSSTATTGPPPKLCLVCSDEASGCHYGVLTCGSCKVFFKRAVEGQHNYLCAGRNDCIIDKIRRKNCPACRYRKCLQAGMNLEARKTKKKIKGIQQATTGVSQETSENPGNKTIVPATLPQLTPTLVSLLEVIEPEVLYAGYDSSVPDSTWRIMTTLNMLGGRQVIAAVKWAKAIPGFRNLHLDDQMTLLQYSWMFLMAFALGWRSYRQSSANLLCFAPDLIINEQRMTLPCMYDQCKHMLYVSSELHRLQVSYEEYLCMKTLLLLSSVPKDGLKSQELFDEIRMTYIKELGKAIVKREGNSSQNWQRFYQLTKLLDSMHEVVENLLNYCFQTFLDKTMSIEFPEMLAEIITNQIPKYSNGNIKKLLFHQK
- protocol: GR-EFC Redistribution (AID 451); note: potency is the fitted concentration of half-maximal effect
- measurementSetup: CHO-K1 GR-EFC translocation, beta-gal luminescence, 2 h
Calls of active or inactive are those of the source. Calls follow the shape of the full dose curve.
Lab note: assign the record to one of active, inactive

Answered cases to consult:
C=C1CC[C@@H](O)C/C1=C/C=C1\CCC[C@]2(C)[C@@H]1CC[C@H]2[C@@H](C)/C=C\[C@@H](C)C(C)C
inactive
CC(C)C[C@@H](CC(=O)N[C@H](CC(=O)N[C@@H]1CCCC[C@H]1C(=O)N[C@H](CC(=O)N[C@@H](CCC(=O)O)CC(=O)O)Cc1c[nH]c2ccccc12)C(C)C)NC(=O)[C@@H]1CNCC[C@H]1N
inactive

# input for lookup
Hello, I am checking results. What call was entered for CCOC(=O)C1=C(C)NC(C)=C(C(=O)OC)[C@H]1c1cccc(Cl)c1Cl ? inactive

* * *

- System: GB4
- protocol: qHTS profiling for inhibitors of Plasmodium falciparum proliferation (AID 504749); note: nearly all actives have a fitted effect of over 60% in size; note: potency is the fitted concentration of half-maximal effect
- measurementSetup: P. falciparum in erythrocytes, SYBR Green DNA, 72 h; series mostly up to 28.7 µM
Records with an inconclusive call do not appear. Active and inactive are the calls of the source. Calls follow the shape of the dose curve; as a rule, active = well fitted inhibition curve with a large enough effect; inconclusive = small, poorly fitted or top-dose-only effect; inactive = flat fitted curve, though single readings scatter.
quantityKind: Potency

Below, each entry is followed by its recorded Potency result.
CCCC[C@H](O)c1ccccc1
inactive
O=C(O)C(O)c1ccccc1 (stereo not given)
inactive
Cc1cc2nc3c(=O)[nH]c(=O)nc-3n(CC(O)C(O)C(O)COP(=O)(O)O)c2cc1C (stereo not given)
inactive
NC(=O)C1CC2(NC(=O)NC2=O)c2cc(F)ccc2O1 (stereo not given)
inactive
CC[C@@]1(O)CC2CN(CCc3c([nH]c4ccccc34)[C@](C(=O)OC)(c3cc4c(cc3OC)N(C)C3[C@@](O)(C(=O)OC)C(OC(C)=O)[C@]5(CC)C=CCN6CC[C@@]43C65)C2)C1 (stereo not given in full)
2.13 µM (active)
O=C1[C@@H]2C[C@@H]3C[C@H]1C[C@@](O)(C3)C2
inactive
CC[C@@H](C)C(N)C(=O)O (stereo not given in full)
inactive
C[C@@](Cc1ccccc1)(NC(=O)CN)c1ccccc1
8.49 µM (active)

Please state Potency for every molecule in the list that follows.
1. CC(C)(C)C(=O)OCC(=O)C1CCC2C3CCC4=CC(=O)CCC4(C)C3CCC12C (stereo not given)
2. CCC(=O)O[C@]1(C(=O)CCl)[C@@H](C)CC2C3C[C@H](F)C4=CC(=O)C=CC4(C)[C@@]3(F)C(O)CC21C (stereo not given in full)
3. COc1cccc2c1C(=O)c1c(O)c3c(c(O)c1C2=O)C[C@@](O)(C(=O)CO)C[C@@H]3OC1CC(N)C(O)C(C)O1 (stereo not given in full)

1: inactive; 2: 7.57 µM (active); 3: 1.69 µM (active)

Please give Potency for each item listed below.
1. Cc1cc(O)c2c(c1)OC1(C)CCC3C(C)(C)CCCC34COC2C14 (stereo not given)
2. NCCCCC(N)C(=O)O (stereo not given)
3. CCCCCCCCCCCCCCCC(=O)OC[C@H](O)[C@H]1OC[C@@H](O)[C@@H]1O
4. CO/N=C(/C(=O)N[C@@H]1C(=O)N2C(C(=O)O)=C(CSc3cnns3)CS[C@H]12)c1csc(N)n1
5. CCN(CC)C(=O)[C@@]1(c2ccccc2)C[C@@H]1CN
6. Cc1onc(-c2c(F)cccc2Cl)c1C(=O)NC1C(=O)N2C1SC(C)(C)C2C(=O)O (stereo not given)
7. O=C1NC(=O)C2C3C=CC(C3)C12 (stereo not given)

15.1 µM (active)
inactive
inactive
inactive
inactive
inactive
inactive

// for each molecule below, give its Potency
1. CC1(C)CC1C(=O)N/C(=C/CCCCSCC(N)C(=O)O)C(=O)O (stereo not given)
2. C[C@@H]1CCN(C(=O)[C@H](CCCNC(=N)N)NS(=O)(=O)c2cccc3c2NC[C@H](C)C3)[C@@H](C(=O)O)C1
3. CO/N=C(/C(=O)N[C@@H]1C(=O)N2C(C(=O)O)=C(CSc3nnnn3C)CS[C@H]12)c1csc(N)n1
4. OCC1O[C@H](Oc2ccc(O)cc2)C(O)C(O)C1O (stereo not given in full)
5. C[C@]12CC[C@@H]3c4ccc(O)cc4CC[C@H]3[C@@H]1CCC2OC(=O)CCC1CCCC1 (stereo not given in full)

["inactive", "inactive", "inactive", "inactive", "inactive"]

Would you be so kind as to report Potency for each listed record?
1. CCCCN1CC(O)C(O)C(O)C1CO (stereo not given)
2. OCC(CO)NC1C[C@](O)(CO)[C@@H](O)[C@H](O)[C@H]1O (stereo not given in full)
3. CN[C@H](C)CCC=C(C)C

["inactive", "inactive", "0.135 µM (active)"]
